- target under test: human melanocortin 1 receptor (human, UniProt Q01726 1-317)
- Sequence (Q01726 whole entry): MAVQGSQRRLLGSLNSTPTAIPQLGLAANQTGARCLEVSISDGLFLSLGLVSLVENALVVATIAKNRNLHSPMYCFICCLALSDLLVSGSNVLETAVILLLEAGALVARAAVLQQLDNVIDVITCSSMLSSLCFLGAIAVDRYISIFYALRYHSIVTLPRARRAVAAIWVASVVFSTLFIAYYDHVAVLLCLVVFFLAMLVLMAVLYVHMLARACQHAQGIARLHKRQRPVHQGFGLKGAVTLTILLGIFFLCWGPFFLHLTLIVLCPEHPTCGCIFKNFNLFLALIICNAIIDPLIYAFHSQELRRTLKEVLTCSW
- assay info: cell-based or functional assay
Positions of bridges follow the written chain, without caps; N, C: chain ends. Non-standard residues stand in square brackets, D forms with d.
Decision: MC1R cAMP EC50 compared against 0.006 µM; not below it gives y, below it gives n.

- cyclo(CPH[dF]HWCAHKKR) (disulfide 1-7; SMILES C[C@@H]1NC(=O)[C@@H]2CSSC[C@H](NC(=O)[C@H](CCCNC(=N)N)NC(=O)[C@H](CCCCN)NC(=O)[C@H](CCCCN)NC(=O)[C@H](Cc3c[nH]cn3)NC1=O)C(=O)N1CCC[C@H]1C(=O)N[C@@H](Cc1c[nH]cn1)C(=O)N[C@H](Cc1ccccc1)C(=O)N[C@@H](Cc1c[nH]cn1)C(=O)N[C@@H](Cc1c[nH]c3ccccc13)C(=O)N2, also called c[c[Cys-Pro-His-D-Phe-His-Trp-Cys]-Ala-His-Lys-Lys-Arg]) [Chem. 96]: y
- cyclo(CPH[dF]RWCPH[dF]RW) (disulfide 1-7; SMILES N=C(N)NCCC[C@@H]1NC(=O)[C@@H](Cc2ccccc2)NC(=O)[C@H](Cc2c[nH]cn2)NC(=O)[C@@H]2CCCN2C(=O)[C@@H]2CSSC[C@H](NC(=O)[C@H](Cc3c[nH]c4ccccc34)NC1=O)C(=O)N1CCC[C@H]1C(=O)N[C@@H](Cc1c[nH]cn1)C(=O)N[C@H](Cc1ccccc1)C(=O)N[C@@H](CCCNC(=N)N)C(=O)N[C@@H](Cc1c[nH]c3ccccc13)C(=O)N2, also called c[c[Cys-Pro-His-D-Phe-Arg-Trp-Cys]-Pro-His-D-Phe-Arg-Trp]) [Chem. 30]: n
- CXHFRWCXHFRW (ACBC 2, 8; D-Phe 4, 10; disulphide Cys1-Cys7; head-to-tail amide Cys1-Trp12, also called c[c[Cys-ACBC-His-D-Phe-Arg-Trp-Cys]-ACBC-His-D-Phe-Arg-Trp]) [Chem. 20]: n
- cyclo(CPH[dF]HWCKKKKW) (disulfide 1-7, also called c[c[Cys-Pro-His-D-Phe-His-Trp-Cys]-Lys-Lys-Lys-Lys-Trp]) [Chem. 75]: y
- CXHFXWCXHFXW (Aib 2, 8; D-Phe 4, 10; AGP 5, 11; disulphide Cys1-Cys7; head-to-tail amide Cys1-Trp12) [Chem. 43]: y
- cyclo(CH[dF]RWECH[dF]RWE) (disulfide 1-7; SMILES N=C(N)NCCC[C@@H]1NC(=O)[C@@H](Cc2ccccc2)NC(=O)[C@H](Cc2c[nH]cn2)NC(=O)[C@@H]2CSSC[C@H](NC(=O)[C@H](CCC(=O)O)NC(=O)[C@H](Cc3c[nH]c4ccccc34)NC1=O)C(=O)N[C@@H](Cc1c[nH]cn1)C(=O)N[C@H](Cc1ccccc1)C(=O)N[C@@H](CCCNC(=N)N)C(=O)N[C@@H](Cc1c[nH]c3ccccc13)C(=O)N[C@@H](CCC(=O)O)C(=O)N2, also called c[c[Cys-His-D-Phe-Arg-Trp-Glu-Cys]-His-D-Phe-Arg-Trp-Glu]) [Chem. 1]: y
